Data credit: patent US9359297B2

- assay.system: human metabotropic glutamate receptor 5 (hmGluR5) (Homo sapiens, UniProt P41594)
- Construct: expressed in transfected cells
- Sequence (P41594 21-1212): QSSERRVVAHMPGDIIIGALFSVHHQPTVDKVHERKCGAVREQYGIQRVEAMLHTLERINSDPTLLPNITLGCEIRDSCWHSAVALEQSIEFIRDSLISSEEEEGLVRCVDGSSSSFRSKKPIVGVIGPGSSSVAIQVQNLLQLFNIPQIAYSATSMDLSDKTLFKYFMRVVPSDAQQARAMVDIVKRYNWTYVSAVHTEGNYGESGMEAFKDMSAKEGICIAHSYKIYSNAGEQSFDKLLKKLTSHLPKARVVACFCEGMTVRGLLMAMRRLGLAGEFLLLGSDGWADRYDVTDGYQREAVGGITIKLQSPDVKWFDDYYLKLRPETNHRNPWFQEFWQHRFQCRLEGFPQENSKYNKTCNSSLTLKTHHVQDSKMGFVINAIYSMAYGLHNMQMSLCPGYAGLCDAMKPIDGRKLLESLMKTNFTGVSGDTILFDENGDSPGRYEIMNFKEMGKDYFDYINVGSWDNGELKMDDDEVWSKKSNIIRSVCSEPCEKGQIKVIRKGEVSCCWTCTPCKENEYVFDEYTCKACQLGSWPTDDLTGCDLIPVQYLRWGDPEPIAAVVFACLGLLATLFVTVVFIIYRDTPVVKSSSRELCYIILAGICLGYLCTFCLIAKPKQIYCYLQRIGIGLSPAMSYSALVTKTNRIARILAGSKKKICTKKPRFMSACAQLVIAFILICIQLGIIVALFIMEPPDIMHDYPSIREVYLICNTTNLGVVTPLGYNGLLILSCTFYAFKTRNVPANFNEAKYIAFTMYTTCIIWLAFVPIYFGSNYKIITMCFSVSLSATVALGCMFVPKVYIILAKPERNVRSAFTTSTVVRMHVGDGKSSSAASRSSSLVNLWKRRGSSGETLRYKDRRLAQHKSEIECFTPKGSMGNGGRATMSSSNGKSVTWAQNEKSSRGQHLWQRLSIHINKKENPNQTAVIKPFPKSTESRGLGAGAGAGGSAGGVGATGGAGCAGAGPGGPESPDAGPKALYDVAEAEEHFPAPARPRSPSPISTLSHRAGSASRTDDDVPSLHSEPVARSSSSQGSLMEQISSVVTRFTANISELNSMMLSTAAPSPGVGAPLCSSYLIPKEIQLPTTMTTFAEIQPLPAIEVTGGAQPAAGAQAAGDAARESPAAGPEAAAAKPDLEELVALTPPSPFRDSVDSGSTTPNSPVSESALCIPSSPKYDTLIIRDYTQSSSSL
- protocol: Calcium mobilization (FLIPR) assay for negative allosteric modulation, EC80 glutamate, hmGluR5 in HEK 293
- Format: cell-based
- condition.label: HEK293; hmGluR5, inhibition of EC80 glutamate response; read-out: FLIPR maximum inhibition
metric.name: Emax

Example results:
- molecule: "Cc1cccc(C(=O)N[C@H]2CC(F)(F)C[C@]3(CCN(c4ccc(F)cn4)C3=O)C2)n1 (single isomer, unassigned)"
  result: "47 to 93%"
- molecule: "Cc1nccc(C(=O)N[C@@H]2C[C@@H](F)C[C@@]3(CCN(c4cc(F)cc(F)c4)C3=O)C2)n1 (relative stereo)"
  result: "47 to 93%"
- molecule: "Cc1nccc(C(=O)N[C@@H]2C[C@H](O)C[C@@]3(CCN(c4cc(F)cc(F)c4)C3=O)C2)n1 (relative stereo)"
  result: "47 to 93%"
- molecule: "CN(C)c1ccc(N2CC[C@]3(CCC[C@H](NC(=O)c4cccc(F)c4)C3)C2=O)cc1 (relative stereo)"
  result: "47 to 93%"
- molecule: "Cc1cc(C(=O)N[C@H]2CCC[C@]3(CCN(c4cccc(F)c4)C3=O)C2)ccn1 (racemic)"
  result: "73 to 95%"

Kindly review the next molecule as well.
(Q) Recorded Emax for CN1CCC(N2CCC3(CCCC(NC(=O)c4cccc(F)c4)C3)C2=O)CC1 (stereo not drawn) , please?
(A) 47 to 93%
